- Test system: JAK1(JH2domain-pseudokinase)
- run conditions: concentration: 1 μM, replicates: in singlicate; n = 1;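 further: KINOMEscan kinase panel screen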
# label = met if %Inh < 30% else not met

Please review the following examples before continuing.
>>> group_label("COc1cc(Nc2nccc(-c3c(-c4cccc(NC(=O)c5c(F)cccc5F)c4)nn4ccccc34)n2)cc(OC)c1OC")
"met"
>>> group_label("CN(C)Cc1ccc(-c2ccc3c(Nc4ccc(Oc5ccccn5)cc4)ccnc3c2)o1")
"met"
>>> group_label("CN(c1ccc(NC(=O)Nc2cc(C(F)(F)F)ccc2F)cc1)c1ccnc(Nc2ccc(S(N)(=O)=O)cc2)n1")
"met"
>>> group_label("Cn1cc(-c2[nH]c3cc(NC(=O)[C@H](N)C4CCCCC4)cc4c3c2C=NNC4=O)cn1")
"not met"
>>> group_label("O=c1[nH]cc(-c2ccc(N3CCOCC3)cc2)c2sc(-c3cn[nH]c3)cc12")
"not met"

Dear reviewer, please state whether "COC(=O)Nc1nc2ccc(Oc3ccc(NC(=O)Nc4cc(C(F)(F)F)ccc4F)cc3)cc2n1C.Cl" has %Inh strictly beneath 30%.
met

How about this molecule: Cc1ccc(C)c(NC(=O)NC2CCN(c3ccnc(Nc4ccc(F)cc4)n3)C2)c1 (centres unmarked)
met

Field entry: "O=C(Nc1n[nH]c2nc(-c3ccc(O)cc3)ccc12)C1CC1"
not met

---

Please respond with reported %Inh for every item in the list.
- Test system: DDR1
- run conditions: concentration: 1 μM, replicates: in singlicate; n = 1
Answers are plain numbers, in %.

Previously resolved entries follow.
>>> assay_value("COc1cc(Nc2nccc(-c3c(-c4cccc(NC(=O)c5c(F)cccc5F)c4)nn4ncccc34)n2)cc(OC)c1OC")
100
>>> assay_value("COc1cc2c(cc1OCCN1CCNCC1)ncc1c3ccc(C#N)cc3[nH]c21")
0
>>> assay_value("O=C(O)C(F)(F)F.O=C(O)C(F)(F)F.O=c1[nH]ccc2nc(N[C@@H]3CCCNC3)nc(Nc3ccc(S(=O)(=O)N4CCOCC4)cc3)c12")
18
>>> assay_value("COc1ccc(-c2coc3ccc(-c4nnc(SCc5ccc(OC)c(C(F)(F)F)c5)o4)cc23)cc1")
2
>>> assay_value("COc1cccc(-c2ccc3c(NC(=O)C4CC4)n[nH]c3n2)c1")
0
>>> assay_value("O=C(NC1CCN(c2ccnc(Nc3ccc(F)cc3)n2)C1)c1cc2ccccc2s1 (stereo not drawn)")
0
>>> assay_value("COc1ccc(CNC(=O)NC2CCN(c3ccnc(Nc4ccc(F)cc4)n3)CC2)cc1")
0
>>> assay_value("Cl.Cl.NCC(C(=O)Nc1cc(Br)c(-c2ccnc3[nH]ccc23)s1)c1ccccc1 (stereo not drawn)")
0
>>> assay_value("Cc1cccc(NC(=O)Nc2ccc(Oc3ncnc4ccn(C)c34)cc2)c1")
99.3
>>> assay_value("O=C(Nc1n[nH]c2cc(-c3ccoc3)ccc12)C1CC1")
0

Hi there! I need %Inh for each item below, if you can.
1. Fc1ccc(-c2ncn(C3CCNCC3)c2-c2ccnc(Oc3ccc(-c4ccccc4)cc3)n2)cc1
2. Nc1ncnc2c1nc(-c1ccccc1)n2-c1ccccc1
3. c1ccc(Oc2ccc(Nc3ccnc4cc(-c5ccc(CNCCN6CCOCC6)o5)ccc34)cc2)nc1

[2, 6, 0]

// each molecule listed below needs its %Inh
1. c1ccc(-c2cnc3nccnn23)cc1
2. COc1cc(Nc2nccc(N3CCC(NC(=O)c4cc5ccccc5s4)C3)n2)cc(OC)c1OC (stereo not drawn)

1. 0
2. 0

For every record below, what is its %Inh?
1. O=C(Nc1n[nH]c2nc(-c3ccc(O)cc3)ccc12)C1CC1
2. CN1CCN(Cc2cccc(-c3ccc4c(Nc5ccc(Oc6ccccc6)cc5)ccnc4c3)c2)CC1
3. Cc1ccc(C(=O)N2CC[C@@H](O)C2)cc1-n1c(C)cc(OCc2ccc(F)cc2F)c(Br)c1=O

0
9
99
